Tested on: NCI/ADR-RES
MEASUREMENT NOTES: NCI SRB cytotoxicity, ovarian NCI/ADR-RES
Type: cell-based
EXPERIMENTAL CONTEXT: Homo sapiens, 48 h exposure
VALUE KIND: GI50 (µM)
Give just the number in µM; leave the unit off.

Guide cases for GI50, answers given:
{"MOLECULE": "COc1ccc(C(=O)/C=C/c2cc(-c3cc(OC)c(OC)c(OC)c3)n[nH]2)cc1OC", "GI50 / µM": 3.13}
{"MOLECULE": "COc1cc(-c2cc(/C=C/C(=O)c3ccc(Cl)c(Cl)c3)[nH]n2)cc(OC)c1OC [12e]", "GI50 / µM": 10.6}
{"MOLECULE": "COc1ccc(C(=O)/C=C/c2cc(-c3cc(OC)c(OC)c(OC)c3)n[nH]2)cc1", "GI50 / µM": 2.7}
{"MOLECULE": "COc1cc(C(=O)/C=C/c2cc(-c3cc(OC)c(OC)c(OC)c3)n[nH]2)cc(OC)c1OC [10e]", "GI50 / µM": 3.47}
{"MOLECULE": "COc1cc(-c2cc(/C=C/C(=O)c3ccc4c(c3)OCO4)[nH]n2)cc(OC)c1OC [11e]", "GI50 / µM": 4.23}

**Q:** Provide measured GI50 value, entry: COc1cc(-c2cc(/C=C/C(=O)c3ccc(F)c(F)c3)[nH]n2)cc(OC)c1OC [13e]
**A:** 3.46
